system under test: cynomolgus IL-36R on BaF/3 cells (cynomolgus, UniProt A0A2K5WSK9 20-558)
Sequence (A0A2K5WSK9 entry or part of it): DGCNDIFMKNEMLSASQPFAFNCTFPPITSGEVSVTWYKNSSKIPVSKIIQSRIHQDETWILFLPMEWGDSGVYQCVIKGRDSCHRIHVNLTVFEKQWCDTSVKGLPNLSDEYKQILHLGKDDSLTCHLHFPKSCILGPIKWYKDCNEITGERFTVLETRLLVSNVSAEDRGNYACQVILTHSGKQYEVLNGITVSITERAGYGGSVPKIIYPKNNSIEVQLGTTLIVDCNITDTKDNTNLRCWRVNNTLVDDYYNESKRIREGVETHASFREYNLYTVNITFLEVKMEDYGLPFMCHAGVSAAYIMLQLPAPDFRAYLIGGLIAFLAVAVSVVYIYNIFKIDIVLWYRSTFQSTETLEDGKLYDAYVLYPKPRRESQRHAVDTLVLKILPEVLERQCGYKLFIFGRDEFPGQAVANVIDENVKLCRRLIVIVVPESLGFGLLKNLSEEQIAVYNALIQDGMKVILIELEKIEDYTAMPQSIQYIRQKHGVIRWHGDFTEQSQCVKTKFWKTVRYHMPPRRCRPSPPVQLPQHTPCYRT
assay explanation: cell-based or functional assay
property: IC90, pNFκB, BaF/3 cynomolgus IL-36R cells, trun-IL-36b (nM)
Write the answer as a number in nM, unit excluded.

Q: What value of IC90, pNFκB, BaF/3 cynomolgus IL-36R cells, trun-IL-36b has been reported for the following binder? antibody 73C5 (antibody, V domains shown, Mouse monoclonal from hybridoma; also called 73C5C10; Mouse 73C5) VH: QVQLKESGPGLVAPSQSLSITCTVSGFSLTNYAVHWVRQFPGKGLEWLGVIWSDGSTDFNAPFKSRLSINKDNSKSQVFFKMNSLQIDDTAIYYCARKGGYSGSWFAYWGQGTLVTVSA VL: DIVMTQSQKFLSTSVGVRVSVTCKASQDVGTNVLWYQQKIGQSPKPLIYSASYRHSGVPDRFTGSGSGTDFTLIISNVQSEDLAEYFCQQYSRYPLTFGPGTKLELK
Result: 1.6

Where these numbers come from: patent US20200231684A1
